B1: library; a variant is named by its letters at N, in order (parent)
chain: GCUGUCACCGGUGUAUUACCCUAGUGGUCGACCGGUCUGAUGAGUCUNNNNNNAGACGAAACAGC

Variants of: B1
protocolDetails: normalized RNA/DNA level with ligand (relative to sTRSVctl = 100) (log10 (% of sTRSVctl)); ligand: hypoxanthine (xanthine aptamer); higher = less ribozyme self-cleavage, higher mRNA level
reportedConditions: ligand concentration (+) RNA-Seq: 5 mM, HEK293T, reporter: mCherry (pCS4076), ligand present: yes
Field: normalized RNA/DNA level with ligand (log10). Provide a value for each of the variants that follow.
Give only the figure.

Fill in the blank: the reported normalized RNA/DNA level with ligand (log10) of UCAGCU is ____.
1.99

// query: UCGUGA
1.84

Likewise for AUUUUA ?
1.9

# repeat for GAUGAG
1.74

Again, but for UAACCU
1.98

Check CACCUU too.
1.97

Another: CUGCAG
1.96

Do the same for ACCACU please
1.96

Further, for GGAAGA ?
1.89

Continue with UUGCAU
1.98

Quick one: CACCAG
1.97
